Origin of measurements: ChEMBL document CHEMBL1201862

# System: MDA-MB-231
# ASSAY REMARKS: NCI tumour cell line growth inhibition, 48 h
Activity calls are given as the source filed them. No stated cut-off is given here; in the data, active = GI50 up to about 1.1 µM and inactive = higher.
Output constraint: value belongs to true (1) for active, false (0) for inactive

# input State the result this test recorded for C[C@H]1[C@H](C)N1CC(O)Cn1ccnc1[N+](=O)[O-] (stereo not given in full) .
# output false (0)

# input State the result this test recorded for CC1Oc2cc3c(-c4c(O)cc(O)c5c(O)c6c(cc45)OC(C)C(C)C6=O)c(O)cc(O)c3c(O)c2C(=O)C1C (stereo not given) .
# output true (1)

# input State the result this test recorded for `C[C@@H](NC(=O)Nc1cccc(C(=O)Nc2cc(C(C)(C)C)ccc2C(=O)O)n1)c1ccccc1` .
# output false (0)

# input State the result this test recorded for `COc1cccc(/C=C\c2ccnc3ccccc23)c1` .
# output false (0)

Now look at this one.
# input State the result this test recorded for CC(C)OC1OC(CO)C(O)CC1n1cc(F)c(=O)[nH]c1=O (stereo not given) .
# output false (0)

====

# Test system: HCT-116
# ASSAY REMARKS: NCI tumour cell line growth inhibition, 48 h
Active and inactive are the calls of the source. Cut-off read from the data, not from the text of the source: active = GI50 up to about 1.1 µM and inactive = higher.
Output constraint: value belongs to active, inactive

# input State the result this test recorded for `COc1ccc(-c2nc3ccc(C)cc3o2)c(OC)c1` .
# output inactive

# input State the result this test recorded for `COC1=CC(=O)c2c(c(COP(=O)(N(C)CCBr)N(C)CCBr)cn2C)C1=O` .
# output active

# input State the result this test recorded for COc1cc(C2c3cc4c(cc3[C@@H](NC3CCN(Cc5ccccc5)CC3)C3COC(=O)[C@H]23)OCO4)cc(OC)c1O (stereo partly specified) .
# output active

# input State the result this test recorded for `CC1(C)N=C(N)N=C(N)N1c1ccc(CCCCc2ccc(Cl)cc2Cl)cc1` .
# output active

# input State the result this test recorded for `CN(C)/C=C1\CCc2ccc([N+](=O)[O-])cc2C1=O` .
# output inactive

# input State the result this test recorded for CN1C(=O)C(O)CC1c1cccc(F)c1 (stereo unspecified) .
# output inactive

# input State the result this test recorded for `CN(C)CCCNC(=O)c1cccc2ccccc12` .
# output inactive

# input State the result this test recorded for `c1ccc(-n2nc3ccc4nonc4c3n2)cc1` .
# output inactive

# input State the result this test recorded for `NC(=O)SCC(=O)Nc1ccc2cccc3c2c1CC3` .
# output inactive

# input State the result this test recorded for `O=C1c2ccccc2C(=O)N1CCCCCCNOCCCN1C(=O)c2ccccc2C1=O` .
# output inactive

---
# input State the result this test recorded for `Oc1ccc(Cl)cc1/C=N/c1cnc2ccccc2c1` .
# output inactive

====

# System: HOP-62
# ASSAY REMARKS: NCI tumour cell line growth inhibition, 48 h
Activity calls are given as the source filed them. Rule as the data show it: active = GI50 up to about 1.1 µM and inactive = higher.
// GI50 lookup, one value per entry

Use the examples below as a reference point.
# lookup: `O=C(CCO)OCCCCCC/C=C\CCCCCC/C=C\CCCCCCCCOC(=O)CCO` on HOP-62, GI50 = 17.1 µM (inactive)

# lookup: CCOc1ccccc1/N=N/C1C(=O)N(C(=O)CC(=O)Nc2ccccc2Cl)N=C1C (stereo not drawn) on HOP-62, GI50 = 27.9 µM (inactive)

# lookup: O=C(Nc1ccc(Cl)c(Cl)c1)N1N=C2c3ccccc3CCC2C1c1ccc(Cl)cc1 (stereo not drawn) on HOP-62, GI50 = > 100 µM (inactive)

# lookup: `CCOC(=O)C(C)(C)Oc1ccc2c(=O)cc(-c3ccccc3)oc2c1` on HOP-62, GI50 = 18.5 µM (inactive)

# lookup: Cc1occc1C(=S)Nc1ccc(Cl)c(C(=O)OC(C)C2CC2)c1 (stereo not drawn) on HOP-62, GI50 = 17.8 µM (inactive)

# lookup: CC1C=C(CCCCCCCCCCCC[C@@H](O)[C@@H]2CC[C@@H]([C@@H]3CC[C@@H](C(O)CCCCCCCCCCCCC4=C[C@H](C)OC4=O)O3)O2)C(=O)O1 (stereo partly drawn) on HOP-62, GI50 = > 100 µM (inactive)

---
# lookup: O=C(CC(=O)N1N=C(c2ccccc2)C(/N=N/c2ccc(Cl)cc2)C1=O)Nc1ccccc1Cl (stereo not drawn) on HOP-62, GI50 = 20.1 µM (inactive)

# lookup: `Cc1[nH]c2c(c1C)S(=O)(=O)c1cc3ccccc3nc1N2` on HOP-62, GI50 = 18.2 µM (inactive)

# lookup: COC(=O)/C=C1\C(=O)C=C2[C@@H]3C[C@H]4C[C@H](CC[C@@]4(C)N21)C3(C)NC(C)=O (stereo partly drawn) on HOP-62, GI50 = 20.7 µM (inactive)

# lookup: `Cn1nc2c(c1N)Cc1c(nn(C)c1N)-c1ccccc1-2` on HOP-62, GI50 = > 100 µM (inactive)

# lookup: `COC(=O)c1c/c(=N\NC(=O)CC(=O)Nc2ccccc2OC)c2ccccc2o1` on HOP-62, GI50 = > 100 µM (inactive)

# lookup: `CN(C)CCNc1ccc2ncn3c4ccccc4c(=O)c1c23` on HOP-62, GI50 = 4.46 µM (inactive)

# lookup: COc1cc2c3c(c1OC)C1(C=CC(=O)C=C1)CC3N(C(=O)OC(C)(C)C(Cl)(Cl)Cl)CC2 (stereo not drawn) on HOP-62, GI50 = 17.6 µM (inactive)

# lookup: CCCCCCCCC/C=C1\CCC(CN(C)C)C1=O (stereo not drawn) on HOP-62, GI50 = 2.08 µM (inactive)
